ASSAYED SYSTEM: T1, LIN7B, Q9HAP6
T1 sequence (Q9HAP6 88-185, limits assumed, looked up): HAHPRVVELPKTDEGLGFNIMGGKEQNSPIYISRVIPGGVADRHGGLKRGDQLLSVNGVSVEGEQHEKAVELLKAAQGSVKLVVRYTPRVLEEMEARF
ASSAY PROTOCOL: holdup assay
Parameters: key: below the threshold = too weak to quantify, mostly under pKd 3.1 to 4
ASSAY SETUP: plain residues with an end cap or a label only (N-terminal biotin on a linker: ado-ado)
MEASURED PROPERTY: pKd

> print(dat)
                         binder      endpoint.result
1   NSTHNLKDYV [CLDN20, P56880]  below the threshold
2    GNDPDRGTSI [GRID2, O43424]                 3.69
3  KKTPVSRSHL [SLC22A3, O75751]  below the threshold
4    DAAHHDESNC [FMNL3, Q8IVF7]  below the threshold
5     TNSKQGETTV [FZD1, Q9UP38]  below the threshold
6   HYPASPDSWV [CTNND2, Q9UQB3]  below the threshold
7     GDSSRKEYFI [GYPC, P04921]                 3.97
8    TFSRRPKTRV [CD226, Q15762]  below the threshold
